Biological target: T1, human CXCR5 (human, UniProt P32302 1-372)
T1 construct: also called hCXCR5; C-X-C chemokine receptor type 5
T1 sequence: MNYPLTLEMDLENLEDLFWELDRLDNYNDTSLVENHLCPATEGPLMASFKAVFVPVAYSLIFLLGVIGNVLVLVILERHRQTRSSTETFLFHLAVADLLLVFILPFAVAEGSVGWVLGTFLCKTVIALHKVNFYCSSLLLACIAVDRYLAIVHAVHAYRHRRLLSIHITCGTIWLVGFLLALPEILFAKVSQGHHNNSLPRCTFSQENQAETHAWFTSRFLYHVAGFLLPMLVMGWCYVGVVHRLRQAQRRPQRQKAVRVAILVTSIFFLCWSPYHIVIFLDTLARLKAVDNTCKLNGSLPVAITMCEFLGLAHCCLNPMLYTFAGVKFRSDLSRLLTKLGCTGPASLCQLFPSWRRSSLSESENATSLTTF
Test: flow cytometry on Raji cells, gMFI titration
measureName: EC50 (nM)

# binder, numericReadout
records = [
    ("mouse 11G2 (antibody, V domains shown, mouse hybridoma mAb; also called 11G2 (hybridoma)) VH: EVKLVESGGGLVQPGGSLRLSCATSGFTFTDFYMSWVRQPPGRALEWLGFIRNKANGYTTEYSASVKGRFTISRDNSQSILYLQMNTLRAGDSATYYCVRVYGSTLHYWGQGTILTVSS VL: DVVVTQSPDSLAVSLGQRATISCRASESVEYHGTSLMHWYQQKPGQPPKLLIYAASNVESGVPARFSGSGSGTDFSLNIHPVEEGDIAMYFCQQSRKVPWTFGGGTKLEIK", 0.968),
    ("mouse 5H7 (antibody, V domains shown, mouse hybridoma mAb; also called 5H7 (hybridoma)) VH: EVKLVESGGGLVQPGDSLRLSCATSGFTFTDFYMSWVRQPPGRALEWLGFIRNKANGYTTEYSASVKGRFTISRDNSQSILYLQMNTLRAGDSATYYCVRVYGSTLHYWGQGTILTVSS VL: DVVVTQSPDSLAVSLGQRATISCRASESVEYHGTSLMHWYQQKPGQPPKLLIYAASNVESGVPARFSGSGSGTDFSLNIHPVEEGDVSMFFCQQSRKVPWTFGGGTKLEIK", 1.01),
    ("mouse 41A10 (antibody, V domains shown, mouse hybridoma mAb; also called 41A10 (hybridoma)) VH: EVQLVESGGDLVKPGGSLKLSCAASGFTFRSYGMSWVRQTPDKRLEWVATISSGGTYTFYPDILKGRITISRDNAKNTLYLQMSNLKSEDTAMYYCARRGEDYRGALEHWGQGTSVTVSS VL: QIVLTQSPAVMSASPGEKVTMTCSASSSVNYIHWYQQKSGTSPKRWIYETSRLASGVPVRFSGSGSGTSYSLTISTMEAEDAATYYCQQWSSNPLTFGAGTKLELK", 0.805),
    ("16D7 (reference antibody) (antibody, human IgG1, kappa, V domains shown, fucosylated; also called S16D7) VH: QVQLKESGPGLVAPSESLSITCTVSGFSLIDYGVNWIRQPPGKGLEWLGVIWGDGTTYYNPSLKSRLSISKDNSKSQVFLKVTSLTTDDTAMYYCARIVYWGQGTLVTVSA VL: DIVMTQAAPSVAVTPGASVSISCRSSKSLLHSSGKTYLYWFLQRPGQSPQLLIYRLSSLASGVPDRFSGSGSGTAFTLRISRVEAEDVGVYYCMQHLEYPYTFGGGTKLEIKR", 0.65),
]
